Experiment: Quantification of Compound A in mouse lung, brain and plasma
Format: in vivo, CD-1 mice
Settings: CD-1, mouse, lung, po, 30 mg/kg, PO 30 mg/kg, 7 h, average of 3 mice; assuming tissue density 1 g/mL; read-out: Lung concentration, average
reported-metric: concentration at 7 h (µM)
I only need the number, in µM, no unit after it.

Query string: concentration at 7 h lookup needed for "N#C[C@@]1(n2ccc(N)nc2=O)O[C@H](CO)[C@@H](O)[C@H]1O" , thanks.
Result string: 4.01

---

Test: Cytotoxicity in PBM cells
Assay type: cell-based, human
Conditions: human
reported-metric: CC50

N#C[C@@]1(n2ccc(=O)[nH]c2=O)O[C@H](CO)C(O)C1O (stereo partly shown) [drawing 130] :: > 100 µM
CC(C)C(=O)OC[C@H]1O[C@@](C#N)(n2ccc(N)nc2=O)C(O)C1O (stereo partly shown) [drawing 133] :: 63.1 µM
CCCCCCCC(=O)OC[C@H]1O[C@@](C#N)(n2ccc(N)nc2=O)C(O)C1O (stereo partly shown) [drawing 134] :: > 100 µM
CC(C)[C@H](N)C(=O)OC1C(O)[C@](C#N)(n2ccc(N)nc2=O)O[C@@H]1CO (stereo partly shown) [drawing 135] :: > 100 µM

Query string: CC50 lookup needed for CC(C)OC(=O)[C@H](C)N[P@](=O)(OC[C@H]1O[C@@](C#N)(n2ccc(N)nc2=O)C(O)C1O)Oc1ccccc1 (stereo partly shown) [drawing 131] , thanks.
Result string: > 100 µM

Query string: CC50 lookup needed for CC(C)C(=O)OC[C@H]1O[C@@](C#N)(n2ccc(=O)[nH]c2=O)C(O)C1O (stereo partly shown) [drawing 132] , thanks.
Result string: > 100 µM

Query string: CC50 lookup needed for N#C[C@@]1(n2ccc(N)nc2=O)O[C@H](CO)[C@@H](O)[C@H]1O [Compound A] , thanks.
Result string: 92 µM
